- System: HCT-15
The entries below are paired with their reported GI50.

Before answering, review these 4 worked examples.
{"columns": ["compound", "GI50"],
 "data": [
  ["N#CC(NC12CC3CC(CC(C3)C1)C2)c1ccc2c(c1)OCO2 (stereo not drawn)", "> 100 µM"],
  ["CC1(C)C(O)c2ccccc2OC1N1CCN(C2Oc3ccccc3C(O)C2(C)C)CC1 (stereo not drawn)", "> 100 µM"],
  ["CCSc1cc(C(=O)OC)c2n(c1=O)CCCC2", "> 100 µM"],
  ["O=C1C2=C(CC3C(C2)C3(Br)Br)C(=O)C2=C1CC1C(C2)C1(Br)Br (stereo not drawn)", "> 100 µM"]
]}

// GI50 value for `Cc1cc(N(CCC#N)CCC#N)ccc1/C=C1/N=C(c2ccccc2)N(N)C1=O` : > 100 µM

compound CC[C@]1(Cc2ccc(OC)c(OC)c2)C=[N+]([O-])O[C@H](OC2CCCC2(c2ccccc2)c2ccccc2)[C@@H]1OC(=O)c1ccccc1 (stereo partly drawn) , GI50 observed: 11.7 µM

###

- Tested on: RXF 393
- procedureText: NCI tumour cell line growth inhibition, 48 h
Active and inactive are the calls of the source. Rule as the data show it: active = GI50 up to about 1.1 µM and inactive = higher.
measure: GI50

Sample answers from the record:
{"columns": ["molecule", "GI50"],
 "data": [
  ["CC1(C)OC2C(CO)OC(n3ccc(N)nc3=O)C2O1 (stereo not given)", "> 100 µM (inactive)"],
  ["COc1cc2oc3cc(=O)cc4oc(-c5ccccc5)cc(c2c2c1CCC(c1ccccc1)O2)c43 (stereo not given)", "54.7 µM (inactive)"],
  ["Cc1nnc2c3c(-c4ccccc4)c(-c4ccccc4)oc3nc(N(C)C)n12", "73.5 µM (inactive)"],
  ["O=c1[nH]c2cc(F)c(F)cc2nc1Cc1ccccc1", "> 100 µM (inactive)"],
  ["O=C(NC(=S)NC(=O)c1cc(O)c(O)c(O)c1)c1cc(O)c(O)c(O)c1", "18 µM (inactive)"]
]}

Measured on RXF 393, NC1=NC2=C(CCCC2)C(c2cccs2)S1 (stereo not given) has a documented GI50 of 38.5 µM (inactive)

For the molecule CC1=NN(c2ccccc2)C(=O)C1/N=N/c1ccc(Br)c(C)c1 (stereo not given) , the measured GI50 on RXF 393 was > 100 µM (inactive)

Form field GI50 for item C=CC1(NS(=O)(=O)c2ccc(C)cc2)CCC(C(C)(C)C)CC1 (stereo not given) on RXF 393: 8.97 µM (inactive)

RXF 393 GI50 of CCN(CC)CCC1CC/C(=C\c2ccc(OC)cc2)C1=O (stereo not given) is 42.3 µM (inactive)

Bench note, RXF 393: `CC1=C(C(=O)NCc2ccccc2)C(c2ccc(C3C(C(=O)NCc4ccccc4)=C(C)NC(C)=C3C(=O)NCc3ccccc3)cc2)C(C(=O)NCc2ccccc2)=C(C)N1` , GI50 reads 16.6 µM (inactive)

###

- Test system: MDA-N
- procedureText: NCI tumour cell line growth inhibition, 48 h
The source made the active and inactive calls. Cut-off read from the data, not from the text of the source: active = GI50 up to about 1.1 µM and inactive = higher.
Respond using exactly one of the listed classes: class 1 for active, class 0 for inactive

// below: answered molecules
{"columns": ["molecule", "group"],
 "data": [
  ["CC(=O)CSc1c(-c2ccccc2)c(=O)n(-c2ccccc2)c(=S)n1-c1ccccc1", "class 0"],
  ["N#CC(/N=N/c1ccc(Cl)cc1)c1nc2ccccc2o1 (configuration not stated)", "class 0"],
  ["COc1ccc(OC)c2c1ccc1c(C)c3ccccc3c(C)c12", "class 0"],
  ["CCCCCc1c(CCCC)c(O)nc2nc(NC(=O)CCCC)ccc12", "class 0"],
  ["CN(C)c1ccc(/C=N/N=C2\\C(=O)Nc3c(Cl)cc(Cl)cc32)cc1", "class 0"],
  ["Cc1[nH]c2c(C)ccc(C)c2c1CC(=O)O", "class 0"]
]}

Query :: // param item: `c1ccc2c3nnc(c2c1)SCCCSc1nnc(c2ccccc12)SCCCS3` ; yields the recorded call
Result :: class 0

Query :: Test call, this molecule: `N#Cc1c(Cl)nc2ccccc2c1N=[N+]=[N-]`
Result :: class 0

Query :: Hi, do you know how CC1=CCC2CC1NC(=O)CCOCCC(=O)NC2(C)C (configuration not stated) came out in this test?
Result :: class 0

Query :: Tell me the assay call for `O=C1/C(=C/c2ccccc2S)N=C(c2ccccc2)N1c1nc2c(Cl)cc(Cl)cc2s1` please.
Result :: class 0

Query :: // param item: `CCCNC(=S)N/N=C1\C(=O)Nc2ccccc21` ; yields the recorded call
Result :: class 0

Query :: Hi, do you know how `O=C(c1cccs1)N1CCN(C(=O)c2cccs2)C1=S` came out in this test?
Result :: class 0

Query :: Which outcome was entered for the molecule O=C1CSC2(CC(/C=C/c3cccs3)=NN2c2cccc(S(=O)(=O)O)c2)N1c1nc2ccccc2s1 (configuration not stated) in this test?
Result :: class 0

Query :: Fill in: this test's call for `O=[N+]([O-])c1cc2c([N+](=O)[O-])cccc2o1` is ___
Result :: class 0

Query :: Test call for this molecule, please: `CCOC(=O)/C(=C\NC[C@@H](C)O)c1nc2ccccc2[nH]1`
Result :: class 0

Query :: Can you look up the reported call for `N=C(N)N/N=C/c1nc2n(c1[N+](=O)[O-])CCS2` for me?
Result :: class 0

Query :: Hey, what did the test say about Cc1cc(C)c2c(c1)C(=O)C1(C2)Cc2c(ccc(C)c2C)C1=O (configuration not stated) ?
Result :: class 0

Query :: Hello, I am checking results. What call was entered for `CNCCN[C@@H]1c2cc3c(cc2[C@@H](c2cc(OC)c(O)c(OC)c2)[C@H]2C(=O)OC[C@@H]21)OCO3` ?
Result :: class 1

Query :: Entry `N#CC(c1ccccc1)(c1ccccc1)[C@@H](c1ccccc1)[C@H](Cc1ccccc1)NS(=O)(=O)c1ccccc1` : call = ?
Result :: class 0

Query :: Please state the recorded outcome for this molecule: `Nc1ccccc1C#CC(=O)c1cccc(C(F)(F)F)c1`
Result :: class 0

###

Each item that follows carries a reported GI50.
- Test system: CAKI-1
- procedureText: NCI tumour cell line growth inhibition, 48 h
Activity calls are given as the source filed them. Rule as the data show it: active = GI50 up to about 1.1 µM and inactive = higher.

In plain terms, Cc1ccc(CC2(OCCN(C)C)CCC(C(C)(C)C)CC2)cc1 (stereo unspecified) has a documented GI50 of 4.99 µM (inactive)

GI50 for `CC(C)c1cccc2sc(NC(=O)C(=O)CC(=O)c3ccc(F)cc3)nc12` is > 100 µM (inactive)

GI50 in this record for `O=C(NNS(=O)(=O)c1ccc(Br)cc1)c1ccc(Cl)cc1NC(=O)C12CC3CC(CC(C3)C1)C2` : 17 µM (inactive)

# GI50 of C=C1[C@H](OCC(C)C)[C@@H](OC(=O)C(C)CC)[C@@H](O)C(C)(C)/C=C/[C@H](C)C(=O)[C@@]2(O)C[C@H](C)[C@H](O)[C@@H]2[C@H]1OC(=O)C(C)CC (stereo partly specified) = 3.32 µM (inactive)

Briefly, GI50 measured for CCCNC1=C2CC(C)CC(OC)[C@@H](O)[C@H](C)/C=C(\C)C(OC(N)=O)C(OC)/C=C\C=C(/C)C(=O)NC(=CC1=O)C2=O (stereo partly specified) : 11.5 µM (inactive)

GI50 for `O=c1oc2ccccc2cc1-c1ccc([N+](=O)[O-])cc1` is > 100 µM (inactive)

###

- System: M14
- procedureText: NCI tumour cell line growth inhibition, 48 h
Calls of active or inactive are those of the source. Rule as the data show it: active = GI50 up to about 1.1 µM and inactive = higher.
Output constraint: value belongs to true (active), false (inactive)

Look over these answered cases.
{"columns": ["molecule", "group"],
 "data": [
  ["N#CC(NC12CC3CC(CC(C3)C1)C2)c1ccc2c(c1)OCO2 (stereo not drawn)", "false"],
  ["CN(O)C(=O)c1ccccc1", "false"],
  ["Cc1ccc(/C=C/C(=O)CCN(C)C)cc1", "false"],
  ["CC(=O)O[C@H]1CCC(C)=CCC[C@@]2(C)C(CC[C@@H]2[C@@H](C)/C=C/C(C)C)c2ccc(cc2C(=O)O)C1 (stereo partly drawn)", "false"],
  ["N=C(N)N/N=C/c1nc2n(c1[N+](=O)[O-])CCS2", "false"],
  ["Oc1cc(-c2cccc(OC(F)(F)F)c2)nc2cc3c(cc12)OCO3", "true"],
  ["NC1=NC2=C(CCCC2)C(c2cccs2)S1 (stereo not drawn)", "false"],
  ["CCOC(=O)/C(=C\\NC[C@@H](C)O)c1nc2ccccc2[nH]1", "false"]
]}

Query :: Fill in: this test's call for C=CC1(NS(=O)(=O)c2ccc(C)cc2)CCC(C(C)(C)C)CC1 (stereo not drawn) is ___
Result :: false

Query :: State the result this test recorded for `COc1ccc(-c2cc(-c3ccc(O)cc3O)c(C#N)c(=O)[nH]2)cc1` .
Result :: false

Query :: For `COc1ccc(-c2cc3ccccc3oc2=O)cc1OC` , what call appears in the results of this test?
Result :: false

Query :: Outcome logged for `CC(=O)c1c(SCCN2CCCCCC2)n(-c2ccccc2)c(=S)n(-c2ccccc2)c1=O` in this assay:
Result :: false
